test system: P. aeruginosa PAO1; assay: MIC of antibiotics with or without PAG/AOAA; format: cell-based; settings: in the presence of 0.5 mM PAG + 0.05 mM AOAA
experimental_endpoint: Minimum inhibitory concentration (µg/mL)
The response must be a number in µg/mL with no trailing unit.

Reference set, count: 2
>  <compound>
CO/N=C(\C(=O)N[C@@H]1C(=O)N2C(C(=O)[O-])=C(C[N+]3(C)CCCC3)CS[C@H]12)c1csc(N)n1 [Cetepine, cefepime]

>  <readout_value>
1

$$$$
>  <compound>
C[C@H]1COc2c(N3CCN(C)CC3)c(F)cc3c(=O)c(C(=O)O)cn1c23 [Levoflaxacin, levofloxacin]

>  <readout_value>
0.5

$$$$

Need Minimum inhibitory concentration of O=C(N[C@H](CO)[C@H](O)c1ccc([N+](=O)[O-])cc1)C(Cl)Cl [Chloramphenicol] , thanks.
64

====

tested on: E. faecium A2373; experiment: MIC of antibiotics with or without PAG/AOAA; assay type: cell-based; details: in the presence of 0.5 mM PAG + 0.05 mM AOAA
# Minimum inhibitory concentration annotations

Use the examples below as a reference point.
>  <compound>
CO/N=C(\C(=O)N[C@@H]1C(=O)N2C(C(=O)[O-])=C(C[N+]3(C)CCCC3)CS[C@H]12)c1csc(N)n1 [Cetepine, cefepime]

>  <readout_value>
>64 µg/mL

$$$$
>  <compound>
CN[C@H](CC(C)C)C(=O)N[C@H]1C(=O)N[C@@H](CC(N)=O)C(=O)N[C@H]2C(=O)N[C@H]3C(=O)N[C@H](C(=O)N[C@H](C(=O)O)c4cc(O)cc(O)c4-c4cc3ccc4O)[C@H](O)c3ccc(c(Cl)c3)Oc3cc2cc(c3O[C@@H]2O[C@H](CO)[C@@H](O)[C@H](O)[C@H]2O[C@H]2C[C@](C)(N)[C@H](O)[C@H](C)O2)Oc2ccc(cc2Cl)[C@H]1O

>  <readout_value>
>64 µg/mL

$$$$

State the recorded Minimum inhibitory concentration for this entry: CCN1CCN(C(=O)N[C@@H](C(=O)N[C@@H]2C(=O)N3[C@@H]2SC(C)(C)[C@@H]3C(=O)O)c2ccccc2)C(=O)C1=O
>64 µg/mL
